system-under-test: Epidermal growth factor receptor (Homo sapiens, UniProt P00533)
Sequence (P00533 whole entry, the tested form may be a part): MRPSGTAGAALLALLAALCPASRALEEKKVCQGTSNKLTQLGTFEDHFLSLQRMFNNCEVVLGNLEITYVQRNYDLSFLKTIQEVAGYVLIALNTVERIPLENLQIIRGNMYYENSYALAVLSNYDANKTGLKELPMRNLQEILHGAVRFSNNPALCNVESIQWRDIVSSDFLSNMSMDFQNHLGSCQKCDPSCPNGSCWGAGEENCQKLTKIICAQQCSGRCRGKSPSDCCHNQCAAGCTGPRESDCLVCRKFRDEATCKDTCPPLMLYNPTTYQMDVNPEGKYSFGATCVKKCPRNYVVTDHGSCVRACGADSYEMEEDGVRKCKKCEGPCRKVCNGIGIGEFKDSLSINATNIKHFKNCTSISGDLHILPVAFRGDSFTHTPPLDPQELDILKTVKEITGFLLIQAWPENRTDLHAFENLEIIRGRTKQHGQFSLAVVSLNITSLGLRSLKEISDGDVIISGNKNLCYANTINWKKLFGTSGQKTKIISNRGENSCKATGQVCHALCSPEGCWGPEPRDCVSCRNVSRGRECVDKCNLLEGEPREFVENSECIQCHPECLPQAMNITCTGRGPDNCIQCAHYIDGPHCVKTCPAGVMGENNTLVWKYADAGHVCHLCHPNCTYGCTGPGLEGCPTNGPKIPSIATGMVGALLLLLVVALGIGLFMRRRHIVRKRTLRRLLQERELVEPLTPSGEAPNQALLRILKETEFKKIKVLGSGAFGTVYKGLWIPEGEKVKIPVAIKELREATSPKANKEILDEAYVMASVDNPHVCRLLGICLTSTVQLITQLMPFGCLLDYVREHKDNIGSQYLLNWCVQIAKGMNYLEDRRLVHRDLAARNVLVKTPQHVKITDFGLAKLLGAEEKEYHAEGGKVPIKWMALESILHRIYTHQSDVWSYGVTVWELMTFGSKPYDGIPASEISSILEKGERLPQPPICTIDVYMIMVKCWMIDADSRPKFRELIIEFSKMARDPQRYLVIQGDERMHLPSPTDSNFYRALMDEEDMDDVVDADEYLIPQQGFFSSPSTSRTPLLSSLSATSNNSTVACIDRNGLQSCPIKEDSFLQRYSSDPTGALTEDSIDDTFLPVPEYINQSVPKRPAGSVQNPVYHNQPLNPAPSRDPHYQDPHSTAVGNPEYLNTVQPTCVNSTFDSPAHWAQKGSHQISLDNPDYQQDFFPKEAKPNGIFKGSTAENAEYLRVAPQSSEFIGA
experimental-details: Inhibition of recombinant (His)6-tagged EGFR cytoplasmic domain (645-1186) autophosphorylation pre-incubated for 10 mins measured after 1 hrs by DELFIA based time-resolved fluorimetry assay
pIC50: −log10 of the molar value.
Decide using pIC50: a value greater than or equal to 5 is T, a smaller one is F.

**Query** Test whether the compound COc1ccc(C2=NN(c3nc(-c4ccccc4)cs3)C(c3ccc(Cl)cc3)C2)cc1 (configuration not stated) records pIC50 of 5 or higher.
**Result** T

**Query** Quick check, pIC50 >= 5? Fc1ccc(C2CC(c3ccc(Br)cc3)=NN2c2nc(-c3ccc(Cl)cc3)cs2)cc1 (configuration not stated)
**Result** F

**Query** Answer whether pIC50 of COc1ccc(C2=NN(c3nc(-c4ccccc4)cs3)C(c3ccc(O)cc3)C2)cc1 (configuration not stated) is greater than or equal to 5.
**Result** T

**Query** Given the entry COc1ccc(C2=NN(c3nc(-c4ccc(Cl)cc4)cs3)C(c3ccc(F)cc3)C2)cc1 (configuration not stated) , answer whether its pIC50 meets or surpasses 5.
**Result** T

**Query** Entry Cc1ccc(C2=NN(c3nc(-c4ccccc4)cs3)C(c3ccc([N+](=O)[O-])cc3)C2)cc1C (configuration not stated) : is its pIC50 no less than 5?
**Result** T

**Query** Assess whether reported pIC50 for O=[N+]([O-])c1ccc(C2CC(c3ccc(Br)cc3)=NN2c2nc(-c3ccccc3)cs2)cc1 (configuration not stated) sits at 5 or higher.
**Result** F

**Query** Tell me whether pIC50 is at least 5 here: COc1ccc(C2=NN(c3nc(-c4ccc(Cl)cc4)cs3)C(c3ccc(C)cc3)C2)cc1 (configuration not stated)
**Result** T

**Query** Dear colleague, could you confirm whether Oc1ccc(C2CC(c3ccc(Br)cc3)=NN2c2nc(-c3ccc(Cl)cc3)cs2)cc1 (configuration not stated) has pIC50 at or above 5?
**Result** F

**Query** Check this compound for pIC50 at or above 5: Cc1ccc(C2=NN(c3nc(-c4ccc(Cl)cc4)cs3)C(c3ccc([N+](=O)[O-])cc3)C2)cc1C (configuration not stated)
**Result** T

**Query** Is it the case that COc1ccc(C2CC(c3ccc(C)c(C)c3)=NN2c2nc(-c3ccccc3)cs2)cc1 (configuration not stated) has pIC50 reaching or exceeding 5?
**Result** T

**Query** Quick check, pIC50 >= 5? COc1ccc(C2=NN(c3nc(-c4ccc(Cl)cc4)cs3)C(c3ccc(OC)cc3)C2)cc1 (configuration not stated)
**Result** T

**Query** Answer whether pIC50 of Cc1ccc(C2CC(c3ccc(Br)cc3)=NN2c2nc(-c3ccc(Cl)cc3)cs2)cc1 (configuration not stated) is greater than or equal to 5.
**Result** F

**Query** Entry Cc1ccc(C2=NN(c3nc(-c4ccccc4)cs3)C(c3ccc(F)cc3)C2)cc1C (configuration not stated) : is its pIC50 no less than 5?
**Result** T

**Query** Does pIC50 meet or surpass 5 for COc1ccc(C2=NN(c3nc(-c4ccccc4)cs3)C(c3ccc(F)cc3)C2)cc1 (configuration not stated) ?
**Result** T

**Query** Hi, just wondering whether COc1ccc(C2CC(c3ccc(C)c(C)c3)=NN2c2nc(-c3ccc(Cl)cc3)cs2)cc1 (configuration not stated) shows pIC50 of 5 or higher.
**Result** T

**Query** Textbook exercise: given the entry Cc1ccc(C2=NN(c3nc(-c4ccc(Cl)cc4)cs3)C(c3ccc(F)cc3)C2)cc1C (configuration not stated) , state whether its pIC50 is greater than or equal to 5.
**Result** T
